biological target: Matrix-associated proTGFβ1 complexes (hLTBP1-proTGFβ1 and hLTBP3-proTGFβ1); test: MSD-SET, hIgG4
Property measured: ECM AVRG (average KD, hLTBP1 and hLTBP3 complexes)

Binder	Val
Ab26 (antibody, IgG4, V domains shown) VH: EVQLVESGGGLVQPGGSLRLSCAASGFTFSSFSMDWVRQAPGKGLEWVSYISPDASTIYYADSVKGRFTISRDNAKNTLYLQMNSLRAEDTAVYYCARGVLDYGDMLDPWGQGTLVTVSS VL: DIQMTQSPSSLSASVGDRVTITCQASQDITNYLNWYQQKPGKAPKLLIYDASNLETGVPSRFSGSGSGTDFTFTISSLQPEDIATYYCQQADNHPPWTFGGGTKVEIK	0.026 nM
Ab24 (antibody, IgG4, V domains shown) VH: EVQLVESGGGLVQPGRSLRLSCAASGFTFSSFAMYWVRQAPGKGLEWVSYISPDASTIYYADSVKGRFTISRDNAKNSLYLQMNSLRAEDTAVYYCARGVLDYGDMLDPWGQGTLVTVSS VL: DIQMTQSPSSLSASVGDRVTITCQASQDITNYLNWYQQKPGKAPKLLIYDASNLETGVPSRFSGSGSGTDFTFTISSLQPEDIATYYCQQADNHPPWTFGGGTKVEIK	0.023 nM
Ab22 (antibody, IgG4, V domains shown) VH: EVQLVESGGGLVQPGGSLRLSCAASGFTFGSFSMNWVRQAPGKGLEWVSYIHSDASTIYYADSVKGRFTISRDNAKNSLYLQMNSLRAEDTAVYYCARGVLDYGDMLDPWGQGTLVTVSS VL: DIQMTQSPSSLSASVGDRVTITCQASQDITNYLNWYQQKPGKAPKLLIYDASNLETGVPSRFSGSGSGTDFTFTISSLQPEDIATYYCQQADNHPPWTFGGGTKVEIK	0.042 nM
